The entries below are paired with their reported ADCC EC50, PBMC effector cells, NUGC-4 target cells.
target: human CLDN18.2 (human); experiment: cell-based or functional assay
Report only the number, with the unit nM understood.

A selection of reference data follows.
{"Binder": "15F9 (antibody, human IgG1, kappa, V domains shown) VH: QVQLVQSGSELKKPGASVKVSCKASGYTFTNYGINWVRQAPGQGLEWMGWINPNTGETTYAEEFKGRFVFSLDTSVSTAYLQISSLKAEDTAVYFCARLYYGNRFDSWGQGTLVTVSS VL: DIVMTQSPDSLAVSLGERATINCKSSQSLLNSGNQRNYLTWYQQKPGQPPKLLIYWASTRESGVPDRFSGSGSGTDFTLTISSLQAEDVAVYYCQNAYYYPLTFGGGTKVEIKR", "Value observed": 0.3}
{"Binder": "humanized antibody hz28G3-1.3 (antibody, human IgG1, kappa, V domains shown) VH: QVQLVQSGAEVKKPGASVKVSCKTSGYSFTDYLMLWVRQAHGQSLEWMGNINPYYGRTTYALKFKGRVTMTVDRSTSTVYMELSSLRSEDTAVYYCARDGYSLRNAMDYWGQGTLVTVSS VL: DIVMTQSPDSLAVSLGERATINCKSSQSLFNSGNQKNYLAWYQQKPGQPPKLLIYGASTRESGVPDRFSGSGSGTDFTLTISSLQAEDVAVYYCQNAHSYPYTFGQGTKVEIKR", "Value observed": 4.6}

Could you now consider this next binder?
## Task So what's the measured ADCC EC50, PBMC effector cells, NUGC-4 target cells for this one? humanized antibody hz28G3-1.1 (antibody, human IgG1, kappa, V domains shown) VH: QVQLVQSGAEVKKPGASVKVSCKTSGYSFTDYLMLWVRQAPGQGLEWMGNINPYYGRTTYALKFKGRVTMTVDRSTSTVYMELSSLRSEDTAVYYCARDGYSLRNAMDYWGQGTLVTVSS VL: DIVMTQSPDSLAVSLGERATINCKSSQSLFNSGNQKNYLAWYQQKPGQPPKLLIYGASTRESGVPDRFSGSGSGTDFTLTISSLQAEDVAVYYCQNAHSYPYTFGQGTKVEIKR
## Result 0.07
